Record form. Attribute: inhibition. Fill in for each entry.
biological target: Tyrosine-protein kinase Lck (Homo sapiens, UniProt P06239); assay: Inhibition of LCK at 30 uM by microfluidic mobility shift assay
Sequence (P06239 2-509 limits assumed): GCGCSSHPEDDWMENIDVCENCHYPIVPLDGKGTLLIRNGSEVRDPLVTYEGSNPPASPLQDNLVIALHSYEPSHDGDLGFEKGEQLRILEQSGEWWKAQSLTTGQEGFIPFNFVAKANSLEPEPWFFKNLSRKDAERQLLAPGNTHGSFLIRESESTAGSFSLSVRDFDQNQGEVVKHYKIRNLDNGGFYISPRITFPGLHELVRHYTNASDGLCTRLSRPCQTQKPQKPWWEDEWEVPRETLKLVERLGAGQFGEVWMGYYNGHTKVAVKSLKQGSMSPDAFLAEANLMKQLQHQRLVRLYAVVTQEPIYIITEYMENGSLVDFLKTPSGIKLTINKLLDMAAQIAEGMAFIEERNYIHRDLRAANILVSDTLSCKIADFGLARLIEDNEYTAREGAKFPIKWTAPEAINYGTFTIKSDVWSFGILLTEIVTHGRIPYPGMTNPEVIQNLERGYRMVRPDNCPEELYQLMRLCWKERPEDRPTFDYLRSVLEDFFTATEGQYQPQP
Express your answer in %, writing the number without its unit.

Prompt: Reported inhibition for `COc1ccc(-c2cc3nn(-c4ccccc4)c(N)c3c(=O)[nH]2)cc1` : what is it?
Response: 75

Prompt: Can you check `CC(C)(C)c1cc2nn(-c3ccccc3)c(N)c2c(=O)[nH]1` next?
Response: 8

Prompt: Can you check `Cn1nc2c3c(nc(-c4ccccc4)cc31)NCC(=O)N2` next?
Response: 6

Prompt: Can you check `Nc1c2c(=O)[nH]c(-c3ccccn3)cc2nn1-c1ccccc1` next?
Response: 91

Prompt: Can you check `Cc1cc2[nH]nc(N)c2c(N2CCOCC2)n1` next?
Response: 44

Prompt: Can you check `COc1ccc(-c2cc3c(c(N)nn3C)c(=O)[nH]2)cc1` next?
Response: 46

Prompt: Can you check `Cc1cc2nn(-c3ccccc3)c(N)c2c(=O)[nH]1` next?
Response: 24

Prompt: Can you check `Nc1n[nH]c2cc(-c3cccs3)[nH]c(=O)c12` next?
Response: 58

Prompt: Can you check `Nc1c2c(=O)[nH]c(-c3ccccc3)cc2nn1-c1ccccn1` next?
Response: 15

Prompt: Can you check `Nc1n[nH]c2cc(-c3cccnc3)[nH]c(=O)c12` next?
Response: 34

Prompt: Can you check `Cc1[nH]c(=O)c2c(N)n(-c3ccccc3)nc2c1-c1ccccc1` next?
Response: 73

Prompt: Can you check `Nc1c2cnc(-c3ccccc3)cc2nn1-c1ccccc1` next?
Response: 13

Prompt: Can you check `Cn1nc(N)c2c(=O)[nH]c(-c3ccccn3)cc21` next?
Response: 21

Prompt: Can you check `CC(=O)Nc1nn(C)c2cc(-c3ccccc3)[nH]c(=O)c12` next?
Response: 8

Prompt: Can you check `Cc1cc2c(c(N)nn2C)c(N2CCOCC2)n1` next?
Response: 10

Prompt: Can you check `CC(=O)Nc1nn(C)c2cc(-c3ccc(N4CCN(C)CC4)cc3)[nH]c(=O)c12` next?
Response: 10

Prompt: Can you check `Cc1cc2[nH]nc(N)c2c(=O)[nH]1` next?
Response: 6

Prompt: Can you check `Nc1n[nH]c2cc(CC3CCNCC3)[nH]c(=O)c12` next?
Response: 4

Prompt: Can you check `CN1CCN(c2ccc(-c3cc4nn(-c5ccccc5)c(N)c4c(=O)[nH]3)cc2)CC1` next?
Response: 100

Prompt: Can you check `CN1CCN(c2ccc(-c3cc4[nH]nc(N)c4c(=O)[nH]3)cc2)CC1` next?
Response: 74

Prompt: Can you check `Cc1cc2c(c(N)nn2C)c(N2CCCCC2)n1` next?
Response: 6

Prompt: Can you check `Cc1nc(N)c2c(=O)[nH]c(C)cc2n1` next?
Response: 5

Prompt: Can you check `Cn1nc(N)c2c(=O)[nH]c(-c3ccccc3)cc21` next?
Response: 22

Prompt: Can you check `COC(=O)CCc1c(C)[nH]c(=O)c2c(N)nn(C)c12` next?
Response: 9

Prompt: Can you check `COCCNc1nc(C)cc2c1c(N)nn2C` next?
Response: 1

Prompt: Can you check `Cc1cc2c(cn1)c(N)nn2C` next?
Response: 4

Prompt: Can you check `Cc1cc2c(c(NS(C)(=O)=O)nn2C)c(=O)[nH]1` next?
Response: 4

Prompt: Can you check `COc1cccc(-c2cc3[nH]nc(N)c3c(=O)[nH]2)c1` next?
Response: 48
